# maps each entry to its IC50
# Tested on: A-375 cells
# assay-text: MTT cytotoxicity assay, A-375
# condition-set: read-out: IC50 values, MTT cytotoxicity assay; A-375, 48 h
assay-readout: IC50 (nM)

molecule="O=C(NCCSSCCNC(=O)C(Cc1c[nH]c2ccc(Br)cc12)=NO)C(Cc1c[nH]c2ccc(Br)cc12)=NO [UVI5008]" system="A-375 cells" meas_value=3100
molecule="Nc1ccccc1NC(=O)c1ccc(CNC(=O)OCc2cccnc2)cc1 [MS-275]" system="A-375 cells" meas_value=2400

###

# Tested on: HCT-116 cells
# assay-text: MTT cytotoxicity assay, HCT-116
# condition-set: read-out: IC50 values, MTT cytotoxicity assay; HCT-116, 48 h
assay-readout: IC50 (nM)

smiles_string=O=C(NCCSSCCNC(=O)C(Cc1c[nH]c2ccc(Br)cc12)=NO)C(Cc1c[nH]c2ccc(Br)cc12)=NO assay_readout=IC50 meas_value=1800
smiles_string=Nc1ccccc1NC(=O)c1ccc(CNC(=O)OCc2cccnc2)cc1 assay_readout=IC50 meas_value=2300
